# TEST_TARGET: human GLP1-R (Homo sapiens, UniProt P43220)
# Sequence (P43220 24-463): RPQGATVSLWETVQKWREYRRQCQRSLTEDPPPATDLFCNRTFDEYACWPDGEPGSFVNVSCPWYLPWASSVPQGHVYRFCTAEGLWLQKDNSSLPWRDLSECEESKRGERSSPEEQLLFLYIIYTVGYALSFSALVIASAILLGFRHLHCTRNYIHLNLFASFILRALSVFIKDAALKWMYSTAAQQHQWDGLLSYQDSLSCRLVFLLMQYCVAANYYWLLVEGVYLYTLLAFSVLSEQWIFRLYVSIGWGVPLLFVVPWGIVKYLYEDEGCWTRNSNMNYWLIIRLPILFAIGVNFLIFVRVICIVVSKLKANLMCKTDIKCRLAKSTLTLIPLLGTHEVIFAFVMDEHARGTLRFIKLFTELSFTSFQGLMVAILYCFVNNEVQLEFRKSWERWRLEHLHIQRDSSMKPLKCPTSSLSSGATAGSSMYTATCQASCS
# ASSAY_NAME: GLP1-R internalization assay in HEK293 cells
# Format: cell-based
# RECORDED_CONDITIONS: HEK293 cells expressing SNAP-GLP-1R; read-out: GLP1R Internalization EC50
Starred links: 1 amine or outer side, 2 acyl side, 3 side chain; linkers in the order of their positions; H or OH if unused. Non-standard residues stand in square brackets, D forms with d. Groups on a side chain read outwards from the residue. *: point of attachment. C18 diacid = O=C(O)CCCCCCCCCCCCCCCCC(=O)*; γGlu = O=C(O)[C@H](CCC(=O)[*:2])N[*:1]; αMeL = CC(C)C[C@](C)(N)C(=O)O; Orn = NCCC[C@H](N)C(=O)O; AEEA = NCCOCCOCC(=O)O; Aib = CC(C)(N)C(=O)O
OUTCOME_MEASURE: EC50
Respond with the figure and its unit, in that order.

Could you share which EC50 value was measured for H-Y[Aib]QGTFTSDFS[Orn][αMeL]LDKK([AEEA-AEEA-γGlu-C18 diacid])AQ[Aib]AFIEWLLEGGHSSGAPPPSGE-NH2 [Example 169] ?
178 nM

Just for reference, patent US20240270821A1 is where these values come from.
